Value source: ChEMBL document CHEMBL6083275

PROCEDURE_SUMMARY: Oral bioavailability in dog at 5 mg/kg
Type: ADME, organism-based, Canis lupus familiaris
TEST_SETTINGS: in vivo
Overview of reported bioavailability across a group of molecules:
Kindly answer with a numeric value in %, unit omitted.

- COMPOUND_STRUCTURE_STRING: "CC(C)C[C@](C)(N)COc1ccc(-c2ccnc(C(F)F)c2)c2nccn12"
  OBSERVED_PROPERTY: "bioavailability"
  ENDPOINT_UNIT: "%"
  TEST_VALUE: 140

Now for a further molecule.
The molecule CC(C)C[C@](C)(N)COc1ccc(-c2ccnc(C(F)F)c2)nc1C(F)F showed bioavailability equal to 116

====

PROCEDURE_SUMMARY: Protein binding in human plasma assessed as unbound fraction
Type: ADME, cell-free
OBSERVED_PROPERTY: fraction unbound
Would you mind answering with just the numeric figure?

Known fraction unbound results, listed for orientation:
- COMPOUND_STRUCTURE_STRING: "CC(C)C[C@](C)(N)COc1ccc(-c2ccnc(C(F)F)c2)n2cncc12"
  fraction unbound: 0.23
- COMPOUND_STRUCTURE_STRING: "CC(C)C[C@](C)(N)COc1ccc(-c2ccnc(C(F)F)c2)c2nccn12"
  fraction unbound: 0.193

Attention now shifts to the item below.
Short answer for CC(C)C[C@](C)(N)COc1ccc(-c2ccnc(C(F)F)c2)nc1C(F)F : fraction unbound was 0.0875

====

PROCEDURE_SUMMARY: Apparent volume of distribution in dog at 1 mg/kg, iv
Format: ADME, organism-based, Canis lupus familiaris
TEST_SETTINGS: in vivo, read-out: Vz
Attribute: Vd
The reply should be a number in L/kg, with the unit left off.

- COMPOUND: "CC(C)C[C@](C)(N)COc1ccc(-c2ccnc(C(F)F)c2)nc1C(F)F [PILAVAPADIN]"
  TEST_VALUE: 5.3

Per the records, this compound ( CC(C)C[C@](C)(N)COc1ccc(-c2ccnc(C(F)F)c2)c2nccn12 ) has Vd equal to 14

====

PROCEDURE_SUMMARY: Half-life in rat at 1 mg/kg, iv
Format: ADME, organism-based
TEST_SETTINGS: in vivo
OBSERVED_PROPERTY: half-life (h)
Note: unit h is implicit; provide only the numeric part.

- COMPOUND: "CC(C)C[C@](C)(N)COc1ccc(-c2ccnc(C(F)F)c2)c2nccn12"
  half-life / h: 10.3

Now look at this entry.
Looking up CC(C)C[C@](C)(N)COc1ccc(-c2ccnc(C(F)F)c2)nc1C(F)F [PILAVAPADIN] , I found its half-life recorded as 9.9

====

PROCEDURE_SUMMARY: Protein binding in rat plasma assessed as unbound fraction
Type: ADME, cell-free
OBSERVED_PROPERTY: fraction unbound
Number only, please.

Reference set (2 entries):
- MOLECULE: "CC(C)C[C@](C)(N)COc1ccc(-c2ccnc(C(F)F)c2)n2cncc12"
  TEST_VALUE: 0.213
- MOLECULE: "CC(C)C[C@](C)(N)COc1ccc(-c2ccnc(C(F)F)c2)c2nccn12"
  TEST_VALUE: 0.185

Please find the next molecule below.
The reported fraction unbound of the molecule CC(C)C[C@](C)(N)COc1ccc(-c2ccnc(C(F)F)c2)nc1C(F)F [PILAVAPADIN] was 0.0894
